src = paper PMC9800617

Experiment: Plasma pharmacokinetics of polymyxin B in CRKP BSI patients (LC-MS/MS; non-compartmental and compartmental)
Format: in vivo, human
Conditions: human, plasma, iv, two-compartmental analysis, mean ± SD, read-out: CL, clearance from the central compartment (converted)
Procedure: Polymyxin B Sulphate for Injection (Lot No. A-1411137) containing 72.0% polymyxin B1 and B1-Ile and 12.1% polymyxin B2 was provided by SPH No. 1 Biochemical & Pharmaceutical Co., Ltd. (Shanghai, China). […] Adverse events were closely monitored and recorded for each patient. […] The concentrations of polymyxin B1 (including B1-Ile) and polymyxin B2 were determined using a validated liquid chromatography-tandem mass spectrometry (LC-MS/MS) method ([Liu et al., 2020]). […]
Bridge positions count the residues as written; N and C are the ends. Square brackets hold non-standard residues; d marks the D form. Peptide text beside a SMILES is read from it. * marks the point of attachment. X1 = CC[C@H](C)CCCCC(=O)*; Dab = NCC[C@H](N)C(=O)O
QUANTITY_MEASURED: clearance (mL/min/kg)

[[record]]
molecule = "CC[C@H](C)CCCCC(=O)N[C@@H](CCN)C(=O)N[C@H](C(=O)N[C@@H](CCN)C(=O)N[C@H]1CCNC(=O)[C@H]([C@@H](C)O)NC(=O)[C@H](CCN)NC(=O)[C@H](CCN)NC(=O)[C@H](CC(C)C)NC(=O)[C@@H](Cc2ccccc2)NC(=O)[C@H](CCN)NC1=O)[C@@H](C)O [polymyxin B] (X1-[Dab]T[Dab][Dab][Dab][dF]L[Dab][Dab]T; lactam 4-C)"
quantity_measured = "clearance"
recorded_value = 0.433


* * *

Test: Plasma pharmacokinetics of polymyxin B in CRKP BSI patients (LC-MS/MS; non-compartmental and compartmental)
Assay type: in vivo, human
Details: human, 2.5 mg/kg loading dose, 3-h iv infusion, plasma, LC-MS/MS, mean ± SD, read-out: Cmax following the loading dose
Method: Polymyxin B Sulphate for Injection (Lot No. A-1411137) containing 72.0% polymyxin B1 and B1-Ile and 12.1% polymyxin B2 was provided by SPH No. 1 Biochemical & Pharmaceutical Co., Ltd. (Shanghai, China). […] Adverse events were closely monitored and recorded for each patient. […] The concentrations of polymyxin B1 (including B1-Ile) and polymyxin B2 were determined using a validated liquid chromatography-tandem mass spectrometry (LC-MS/MS) method ([Liu et al., 2020]). […]
Bridge positions count the residues as written; N and C are the ends. Square brackets hold non-standard residues; d marks the D form. Peptide text beside a SMILES is read from it. * marks the point of attachment. X1 = CC[C@H](C)CCCCC(=O)*; Dab = NCC[C@H](N)C(=O)O
QUANTITY_MEASURED: Cmax (ng/mL)

[[record]]
compound = "CC[C@H](C)CCCCC(=O)N[C@@H](CCN)C(=O)N[C@H](C(=O)N[C@@H](CCN)C(=O)N[C@H]1CCNC(=O)[C@H]([C@@H](C)O)NC(=O)[C@H](CCN)NC(=O)[C@H](CCN)NC(=O)[C@H](CC(C)C)NC(=O)[C@@H](Cc2ccccc2)NC(=O)[C@H](CCN)NC1=O)[C@@H](C)O [polymyxin B] (X1-[Dab]T[Dab][Dab][Dab][dF]L[Dab][Dab]T; lactam 4-C)"
recorded_value = 5530


* * *

assay: Plasma pharmacokinetics of polymyxin B in CRKP BSI patients (LC-MS/MS; non-compartmental and compartmental); type: in vivo, human; details: human, steady state, 1.25 mg/kg/12 h (2-h iv infusion), plasma, LC-MS/MS, non-compartmental, mean ± SD
Bridge positions count the residues as written; N and C are the ends. Square brackets hold non-standard residues; d marks the D form. Peptide text beside a SMILES is read from it. * marks the point of attachment. X1 = CC[C@H](C)CCCCC(=O)*; Dab = NCC[C@H](N)C(=O)O
QUANTITY_MEASURED: Vd (L/kg)

[[record]]
compound = "CC[C@H](C)CCCCC(=O)N[C@@H](CCN)C(=O)N[C@H](C(=O)N[C@@H](CCN)C(=O)N[C@H]1CCNC(=O)[C@H]([C@@H](C)O)NC(=O)[C@H](CCN)NC(=O)[C@H](CCN)NC(=O)[C@H](CC(C)C)NC(=O)[C@@H](Cc2ccccc2)NC(=O)[C@H](CCN)NC1=O)[C@@H](C)O [polymyxin B] (X1-[Dab]T[Dab][Dab][Dab][dF]L[Dab][Dab]T; lactam 4-C)"
recorded_value = 0.49


* * *

test: Plasma pharmacokinetics of polymyxin B in CRKP BSI patients (LC-MS/MS; non-compartmental and compartmental); assay type: in vivo, human; settings: human, steady state, 1.25 mg/kg/12 h (2-h iv infusion), plasma, LC-MS/MS, non-compartmental, mean ± SD, read-out: Cmax
Bridge positions count the residues as written; N and C are the ends. Square brackets hold non-standard residues; d marks the D form. Peptide text beside a SMILES is read from it. * marks the point of attachment. X1 = CC[C@H](C)CCCCC(=O)*; Dab = NCC[C@H](N)C(=O)O
QUANTITY_MEASURED: Cmax

[[record]]
compound = "CC[C@H](C)CCCCC(=O)N[C@@H](CCN)C(=O)N[C@H](C(=O)N[C@@H](CCN)C(=O)N[C@H]1CCNC(=O)[C@H]([C@@H](C)O)NC(=O)[C@H](CCN)NC(=O)[C@H](CCN)NC(=O)[C@H](CC(C)C)NC(=O)[C@@H](Cc2ccccc2)NC(=O)[C@H](CCN)NC1=O)[C@@H](C)O [polymyxin B] (X1-[Dab]T[Dab][Dab][Dab][dF]L[Dab][Dab]T; lactam 4-C)"
recorded_value = "5420 ng/mL"

